- experimentalTarget: Geranylgeranyl pyrophosphate synthase (Homo sapiens)
- Sequence (whole entry): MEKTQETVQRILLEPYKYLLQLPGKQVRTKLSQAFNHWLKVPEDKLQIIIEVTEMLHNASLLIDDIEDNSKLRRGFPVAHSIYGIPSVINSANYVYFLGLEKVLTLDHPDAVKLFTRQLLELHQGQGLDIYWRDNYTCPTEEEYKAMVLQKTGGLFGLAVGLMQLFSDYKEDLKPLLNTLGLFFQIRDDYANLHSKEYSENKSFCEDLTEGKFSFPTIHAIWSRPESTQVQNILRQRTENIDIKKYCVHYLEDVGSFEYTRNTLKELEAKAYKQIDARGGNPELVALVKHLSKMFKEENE
- assayDetails: Inhibition of GGDPS in human RPMI-8226 cells assessed as lowest effective concentration required to show unmodified Rap1a band measured after 48 hrs by immunoblot analysis
- Assay type: cell-based
# Lookup of reported LED keyed by entry
Number only, in µM; omit the unit.

molecule: CC(C)=CCC/C(C)=C/CCn1cc(CC(C)(P(=O)(O)O)P(=O)(O)O)nn1
experimentalTarget: Geranylgeranyl pyrophosphate synthase (Homo sapiens)
observable: LED
observedResult: 0.02

molecule: CC(C)=CCCC(C)=CCn1cc(C2CC2(P(=O)(O)O)P(=O)(O)O)nn1 (stereo unspecified)
experimentalTarget: Geranylgeranyl pyrophosphate synthase (Homo sapiens)
observable: LED
observedResult: 0.5

molecule: CC(C)=CCCC(C)=CCCn1cc(CC(P(=O)(O)O)P(=O)(O)O)nn1
experimentalTarget: Geranylgeranyl pyrophosphate synthase (Homo sapiens)
observable: LED
observedResult: 0.03

molecule: CC(C)=CCCC(C)CCCn1cc(C=C(P(=O)(O)O)P(=O)(O)O)nn1 (stereo unspecified)
experimentalTarget: Geranylgeranyl pyrophosphate synthase (Homo sapiens)
observable: LED
observedResult: 50

get_value(item= CC(C)=CCC/C(C)=C\CCn1cc(CC(C)(P(=O)(O)O)P(=O)(O)O)nn1 , readout=LED) returns 0.025

get_value(item= CC(C)=CCCC(C)=CCn1cc(C=C(P(=O)(O)O)P(=O)(O)O)nn1 , readout=LED) returns 0.25

get_value(item= CC(C)=CCCC(C)=CCn1cc(CC(P(=O)(O)O)P(=O)(O)O)nn1 , readout=LED) returns 0.5

get_value(item= CC(C)=CCC/C(C)=C\CCn1cc(C2CC2(P(=O)([O-])[O-])P(=O)([O-])[O-])nn1.[Na+].[Na+].[Na+].[Na+] (stereo unspecified) , readout=LED) returns 100

get_value(item= CC(C)=CCC/C(C)=C/CCn1cc(C2CC2(P(=O)([O-])[O-])P(=O)([O-])[O-])nn1.[Na+].[Na+].[Na+].[Na+] (stereo unspecified) , readout=LED) returns 100

get_value(item= CC(C)=CCC/C(C)=C\CCn1cc(C=C(P(=O)(O)O)P(=O)(O)O)nn1 , readout=LED) returns 0.25

get_value(item= CC(C)=CCC/C(C)=C/CCn1cc(C2CC2(P(=O)(OCOC(=O)C(C)(C)C)OCOC(=O)C(C)(C)C)P(=O)(OCOC(=O)C(C)(C)C)OCOC(=O)C(C)(C)C)nn1 (stereo unspecified) , readout=LED) returns 5
